Target: PI3K-α (Homo sapiens, UniProt P42336)
Sequence (P42336 whole entry, species assumed): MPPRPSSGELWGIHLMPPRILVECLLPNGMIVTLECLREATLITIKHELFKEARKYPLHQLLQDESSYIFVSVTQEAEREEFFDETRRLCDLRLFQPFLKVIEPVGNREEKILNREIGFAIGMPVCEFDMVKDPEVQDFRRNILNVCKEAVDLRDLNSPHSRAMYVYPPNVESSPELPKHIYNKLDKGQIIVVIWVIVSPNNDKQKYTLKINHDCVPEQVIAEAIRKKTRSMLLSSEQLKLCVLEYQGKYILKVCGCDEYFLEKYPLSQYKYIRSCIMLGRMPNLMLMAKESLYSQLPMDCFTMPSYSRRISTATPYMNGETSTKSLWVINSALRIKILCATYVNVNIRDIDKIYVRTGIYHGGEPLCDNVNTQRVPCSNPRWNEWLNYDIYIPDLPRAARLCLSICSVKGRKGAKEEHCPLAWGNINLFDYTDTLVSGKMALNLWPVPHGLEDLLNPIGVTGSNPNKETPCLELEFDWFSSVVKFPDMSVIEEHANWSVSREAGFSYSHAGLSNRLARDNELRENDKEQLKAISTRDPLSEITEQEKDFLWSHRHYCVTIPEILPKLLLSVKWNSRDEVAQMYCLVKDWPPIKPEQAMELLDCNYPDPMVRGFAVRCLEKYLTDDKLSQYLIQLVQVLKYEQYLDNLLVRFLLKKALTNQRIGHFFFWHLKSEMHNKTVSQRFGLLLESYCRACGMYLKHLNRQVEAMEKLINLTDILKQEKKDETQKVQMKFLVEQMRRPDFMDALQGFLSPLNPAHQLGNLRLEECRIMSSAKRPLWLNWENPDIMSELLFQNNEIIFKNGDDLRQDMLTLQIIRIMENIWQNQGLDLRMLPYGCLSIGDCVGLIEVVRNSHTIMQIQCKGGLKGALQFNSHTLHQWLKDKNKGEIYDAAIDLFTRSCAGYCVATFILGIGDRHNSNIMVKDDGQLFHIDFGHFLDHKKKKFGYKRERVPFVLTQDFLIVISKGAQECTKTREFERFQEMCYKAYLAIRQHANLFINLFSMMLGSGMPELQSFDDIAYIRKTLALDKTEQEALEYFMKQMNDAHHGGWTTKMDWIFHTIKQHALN
Sequence (P27986 whole entry partner, species assumed): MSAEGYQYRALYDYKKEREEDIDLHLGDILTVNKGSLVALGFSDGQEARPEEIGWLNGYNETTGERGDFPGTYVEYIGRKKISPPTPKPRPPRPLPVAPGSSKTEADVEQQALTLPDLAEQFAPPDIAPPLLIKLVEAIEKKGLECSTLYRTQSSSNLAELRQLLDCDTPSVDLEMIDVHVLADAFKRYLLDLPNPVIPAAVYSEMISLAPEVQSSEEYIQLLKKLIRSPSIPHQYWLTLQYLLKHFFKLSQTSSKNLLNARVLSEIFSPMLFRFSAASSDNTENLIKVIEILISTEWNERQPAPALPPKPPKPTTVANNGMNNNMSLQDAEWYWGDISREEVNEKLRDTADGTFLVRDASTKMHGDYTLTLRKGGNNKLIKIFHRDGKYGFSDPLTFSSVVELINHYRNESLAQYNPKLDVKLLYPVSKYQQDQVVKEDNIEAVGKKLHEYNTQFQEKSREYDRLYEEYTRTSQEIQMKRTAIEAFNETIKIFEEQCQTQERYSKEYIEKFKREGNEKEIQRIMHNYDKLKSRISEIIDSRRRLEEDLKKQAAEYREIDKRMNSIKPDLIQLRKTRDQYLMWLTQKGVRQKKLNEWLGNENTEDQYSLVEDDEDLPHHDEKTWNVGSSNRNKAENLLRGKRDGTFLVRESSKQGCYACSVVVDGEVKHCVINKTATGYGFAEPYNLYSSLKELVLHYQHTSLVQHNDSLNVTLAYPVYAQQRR
Assay: PI3K-alpha fluorescence polarization assay
Details: read-out: IC50 PI3Kα
Measured Metric: IC50 (nM)
Expressed in nM, but write only the number.

INPUT: Returns the measured IC50 for the input molecule. Input: CC(C)c1nc(-c2ccc(NC(=O)Nc3ccc(-c4cncnc4)cc3)cc2)nc(N2CCOCC2)n1
OUTPUT: 32.3

INPUT: Returns the measured IC50 for the input molecule. Input: C[C@H]1COCCN1c1nc(-c2ccc(NC(=O)NC3CCN(C)CC3)cc2)nc(N2CCOCC2)n1
OUTPUT: 1520

INPUT: Returns the measured IC50 for the input molecule. Input: Cc1ccc(-c2nc(-c3ccc(NC(=O)Nc4ccc(C(=O)NCCN(C)C)cc4)cc3)nc(N3CCOCC3)n2)cc1
OUTPUT: 8

INPUT: Returns the measured IC50 for the input molecule. Input: CNCCN(C)C(=O)c1ccc(NC(=O)Nc2ccc(-c3nc(N4CCOCC4)nc(N4C5CCCC4COC5)n3)cc2)cc1
OUTPUT: 3.5

INPUT: Returns the measured IC50 for the input molecule. Input: CN1CCN(c2ccc(NC(=O)Nc3ccc(-c4nc(N5CC[S+]([O-])CC5)nc(N5C6CCC5COC6)n4)cc3)cc2)CC1
OUTPUT: 1220

INPUT: Returns the measured IC50 for the input molecule. Input: O=C(Nc1ccncc1)Nc1ccc(-c2nc(OC3CCNCC3)nc(N3CCOCC3)n2)cc1
OUTPUT: 3

INPUT: Returns the measured IC50 for the input molecule. Input: CC(C)(CO)Nc1nc(-c2ccc(NC(=O)Nc3cccnc3)cc2)nc(N2CC3CCC(C2)O3)n1
OUTPUT: 158

* * *

Biological target: PI3K-γ (Homo sapiens, UniProt P48736)
Sequence (P48736 whole entry, species assumed): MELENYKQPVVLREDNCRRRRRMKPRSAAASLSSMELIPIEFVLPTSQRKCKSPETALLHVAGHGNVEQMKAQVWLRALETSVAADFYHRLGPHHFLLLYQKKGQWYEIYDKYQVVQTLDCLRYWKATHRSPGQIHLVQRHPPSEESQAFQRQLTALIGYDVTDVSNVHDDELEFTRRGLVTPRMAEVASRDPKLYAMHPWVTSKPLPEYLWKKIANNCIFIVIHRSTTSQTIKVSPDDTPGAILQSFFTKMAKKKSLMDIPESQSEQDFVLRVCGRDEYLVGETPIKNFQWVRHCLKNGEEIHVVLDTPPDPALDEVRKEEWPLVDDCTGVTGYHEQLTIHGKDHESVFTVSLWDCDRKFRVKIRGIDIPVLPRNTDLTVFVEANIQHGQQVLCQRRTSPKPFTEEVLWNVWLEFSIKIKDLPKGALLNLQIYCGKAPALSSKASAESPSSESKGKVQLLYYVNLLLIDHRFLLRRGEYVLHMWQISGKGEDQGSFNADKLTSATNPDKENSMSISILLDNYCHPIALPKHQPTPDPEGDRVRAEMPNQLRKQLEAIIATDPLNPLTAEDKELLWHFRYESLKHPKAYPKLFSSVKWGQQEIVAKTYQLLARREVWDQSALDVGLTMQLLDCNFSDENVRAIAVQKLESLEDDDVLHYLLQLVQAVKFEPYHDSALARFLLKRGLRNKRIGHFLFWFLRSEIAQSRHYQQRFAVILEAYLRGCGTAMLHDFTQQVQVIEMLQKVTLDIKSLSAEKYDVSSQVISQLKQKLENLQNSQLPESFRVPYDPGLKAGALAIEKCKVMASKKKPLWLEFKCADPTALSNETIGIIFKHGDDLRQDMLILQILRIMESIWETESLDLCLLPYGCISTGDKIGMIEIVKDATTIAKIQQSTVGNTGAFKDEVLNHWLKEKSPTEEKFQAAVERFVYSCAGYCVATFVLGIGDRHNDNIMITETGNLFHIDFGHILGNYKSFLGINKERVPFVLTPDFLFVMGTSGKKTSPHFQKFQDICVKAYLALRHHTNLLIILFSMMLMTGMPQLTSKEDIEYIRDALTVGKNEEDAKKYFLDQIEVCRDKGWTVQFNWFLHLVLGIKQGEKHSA
Test: PI3K-gamma fluorescence polarization assay
Settings: read-out: IC50 PI3Kγ; listed as 670
Measured Metric: pIC50
Please note pIC50 is a logarithmic value: minus log10 of concentration in mol/L. Answer with that number alone.

INPUT: Returns the measured pIC50 for the input compound. Input: NC(=O)c1ccc(NC(=O)Nc2ccc(-c3nc(N4CCOCC4)nc(N4C5CCC4COC5)n3)cc2)cc1 [Example 35]
OUTPUT: 7.28

* * *

Target: UniProt:P48736
Test: PI3K-gamma fluorescence polarization assay
Conditions: read-out: IC50 PI3Kγ
API: label(entry) gives satisfied if the entry's IC50 is strictly smaller than 100 nM; on equality or larger values it gives not satisfied.

INPUT: Is IC50 of O=C(Nc1ccc(-c2nc(N3C[C@@H]4C[C@H]3CO4)nc(N3C[C@@H]4C[C@H]3CO4)n2)cc1)Nc1ccc(N2CCNCC2)cc1 strictly below 100 nM?
OUTPUT: not satisfied

INPUT: Is IC50 of CC(C)c1nc(-c2ccc(NC(=O)Nc3ccc(C(=O)NC4CN(C)C4)cc3)cc2)nc(N2CCOCC2)n1 strictly below 100 nM?
OUTPUT: satisfied

INPUT: Is IC50 of CN(C)CCNC(=O)c1ccc(NC(=O)Nc2ccc(-c3nc(C4CCOCC4)nc(N4CCOCC4)n3)cc2)cc1 strictly below 100 nM?
OUTPUT: satisfied

INPUT: Is IC50 of O=C(Nc1ccncc1)Nc1ccc(-c2nc(N3CCOCC3)nc(N3CCOCC3)n2)cc1 strictly below 100 nM?
OUTPUT: satisfied

INPUT: Is IC50 of Cc1ccc(-c2nc(-c3ccc(NC(=O)Nc4ccc(C(=O)N5CCCCC5)cc4)cc3)nc(N3CCOCC3)n2)cc1 strictly below 100 nM?
OUTPUT: not satisfied

INPUT: Is IC50 of CCNc1nc(-c2ccc(NC(=O)Nc3cccnc3)cc2)nc(N2CC3CCC(C2)O3)n1 strictly below 100 nM?
OUTPUT: not satisfied

INPUT: Is IC50 of O=C(Nc1ccncc1)Nc1ccc(-c2nc(-c3ccccc3)nc(N3CCOCC3)n2)cc1 strictly below 100 nM?
OUTPUT: satisfied

INPUT: Is IC50 of CC(C)Nc1nc(-c2ccc(NC(=O)Nc3ccc(CO)cc3)cc2)nc(N2CC3CCC(C2)O3)n1 strictly below 100 nM?
OUTPUT: not satisfied

INPUT: Is IC50 of O=C(Nc1ccc(-c2nc(N3CCOCC3)nc(N3C4CCC3COC4)n2)cc1)Nc1ccc(-c2nc(N3CCOCC3)nc(N3C4CCC3COC4)n2)cc1 strictly below 100 nM?
OUTPUT: not satisfied

INPUT: Is IC50 of C[C@@H]1COCCN1c1nc(-c2ccc(NC(=O)Nc3ccc(N4CCN(C)CC4)nc3)cc2)nc(N2C3CCC2COC3)n1 strictly below 100 nM?
OUTPUT: not satisfied

INPUT: Is IC50 of CCCc1nc(-c2ccc(NC(=O)Nc3ccc(N4CCN(C)CC4)cc3)cc2)nc(N2CCOCC2)n1 strictly below 100 nM?
OUTPUT: satisfied

INPUT: Is IC50 of O=C(Nc1ccc(-c2nc(N3CCOCC3)nc(N3CCOCC3)n2)cc1)Nc1ccc(C(F)(F)F)cn1 strictly below 100 nM?
OUTPUT: not satisfied

INPUT: Is IC50 of O=C(Nc1ccc(-c2nc(N3CC4CCC(C3)O4)nc(N3CC4CNCC(C3)O4)n2)cc1)Nc1cccnc1 strictly below 100 nM?
OUTPUT: not satisfied

INPUT: Is IC50 of O=C(Nc1ccncc1)Nc1ccc(-c2nc(N3CCOCC3)nc(N3C4COCC3COC4)n2)cc1 strictly below 100 nM?
OUTPUT: satisfied

* * *

I'd appreciate it if you could supply pIC50 values for the items below.
Target: PI3K-γ (Homo sapiens, UniProt P48736)
Assay: PI3K-gamma fluorescence polarization assay
Conditions: read-out: IC50 PI3Kγ
Please note pIC50 is a logarithmic value: minus log10 of concentration in mol/L. Answer with that number alone.

INPUT: Returns the measured pIC50 for the input compound. Input: CC(C)Cc1nc(-c2ccc(NC(=O)Nc3ccc(C(=O)N(C)CCN(C)C)cc3)cc2)nc(N2CCOCC2)n1
OUTPUT: 7.66

INPUT: Returns the measured pIC50 for the input compound. Input: CN(C)CCNC(=O)c1ccc(NC(=O)Nc2ccc(-c3nc(N4CCOCC4)nc(N4C5CCC4COC5)n3)cc2)cc1
OUTPUT: 7.40

INPUT: Returns the measured pIC50 for the input compound. Input: CNc1nc(-c2ccc(NC(=O)Nc3cccnc3)cc2)nc(N2CC3CCC(C2)O3)n1
OUTPUT: 5.88

INPUT: Returns the measured pIC50 for the input compound. Input: CC(C)c1nc(-c2ccc(NC(=O)Nc3ccc(-c4ccncc4)cc3)cc2)nc(N2CCOCC2)n1
OUTPUT: 5.04

* * *

Molecular target: PI3K-α (Homo sapiens, UniProt P42336)
Assay: PI3K-alpha fluorescence polarization assay
Details: read-out: IC50 PI3Kα
API: label(entry) gives y if the entry's IC50 is strictly smaller than 10 nM; on equality or larger values it gives n.

INPUT: Is IC50 of O=C(NCCO)Nc1ccc(-c2nc(N3CCOCC3)nc(N3C4CCC3COC4)n2)cc1 strictly below 10 nM?
OUTPUT: n

INPUT: Is IC50 of NCCCNc1nc(-c2ccc(NC(=O)Nc3cccnc3)cc2)nc(N2CC3CCC(C2)O3)n1 strictly below 10 nM?
OUTPUT: n

INPUT: Is IC50 of NC(=O)c1ccc(NC(=O)Nc2ccc(-c3nc(Nc4ccc(N5CCNCC5)cc4)nc(N4CC5CCC(C4)O5)n3)cc2)cc1 strictly below 10 nM?
OUTPUT: y

INPUT: Is IC50 of CC(C)Nc1nc(-c2ccc(NC(=O)Nc3ccc(C(=O)NN4CCCC4)cc3)cc2)nc(N2CC3CCC(C2)O3)n1 strictly below 10 nM?
OUTPUT: n

INPUT: Is IC50 of CC1CN(C(=O)c2ccc(NC(=O)Nc3ccc(-c4nc(N5CCOCC5)nc(N5C6CCC5COC6)n4)cc3)cc2)CC(C)N1 (stereo not shown) strictly below 10 nM?
OUTPUT: y

INPUT: Is IC50 of CN1CCN(C(=O)c2ccc(NC(=O)Nc3ccc(-c4nc(N5CCOCC5)nc(N5CCN(C(=O)N(C)C)CC5)n4)cc3)cc2)CC1 strictly below 10 nM?
OUTPUT: y

INPUT: Is IC50 of Cc1cc(NC(=O)Nc2ccc(-c3nc(N4CCOCC4)nc(N4CC5CCC4CO5)n3)cc2)n(C)n1 (stereo not shown) strictly below 10 nM?
OUTPUT: n

INPUT: Is IC50 of C[C@H]1COCCN1c1nc(-c2ccc(NC(=O)Nc3ccc(CO)cc3)cc2)nc(N2CCOCC2)n1 strictly below 10 nM?
OUTPUT: y

INPUT: Is IC50 of CN(C)C(=O)N1CCN(c2nc(-c3ccc(NC(=O)Nc4ccc(C(=O)Nc5ccnnc5)cc4)cc3)nc(N3CCOCC3)n2)CC1 strictly below 10 nM?
OUTPUT: y

INPUT: Is IC50 of Cc1ccc(-c2nc(-c3ccc(NC(=O)Nc4ccc(C(=O)NCCCN(C)C)cc4)cc3)nc(N3CCOCC3)n2)cc1 strictly below 10 nM?
OUTPUT: n

INPUT: Is IC50 of Nc1ccc(-c2nc(N3CCOCC3)nc(N3CCC4(CC3)OCCO4)n2)cc1 strictly below 10 nM?
OUTPUT: n

INPUT: Is IC50 of O=C(Nc1ccc(C(=O)NC2CN3CCC2CC3)cc1)Nc1ccc(-c2nc(N3CCOCC3)nc(N3CCOCC3)n2)cc1 (stereo not shown) strictly below 10 nM?
OUTPUT: y

INPUT: Is IC50 of O=C(Nc1ccc(C(=O)N2CCS(=O)(=O)CC2)cc1)Nc1ccc(-c2nc(N3CCOCC3)nc(N3C4CCC3COC4)n2)cc1 strictly below 10 nM?
OUTPUT: y

INPUT: Is IC50 of CN(C)C(=O)N1CCN(c2nc(-c3ccc(NC(=O)Nc4ccncc4)cc3)nc(N3CCOCC3)n2)CC1 strictly below 10 nM?
OUTPUT: n

INPUT: Is IC50 of C[C@@H]1COCCN1c1nc(-c2ccc(NC(=O)Nc3cccnc3)cc2)nc(C2CCOCC2)n1 strictly below 10 nM?
OUTPUT: n

INPUT: Is IC50 of O=C(Nc1ccc(-c2nc(OCC3CCCNC3)nc(N3CC4CCC(C3)O4)n2)cc1)Nc1cccnc1 (stereo not shown) strictly below 10 nM?
OUTPUT: n

INPUT: Is IC50 of O=C(Nc1ccc(-c2nc(OC3CCOCC3)nc(N3CCOCC3)n2)cc1)Nc1cccnc1 strictly below 10 nM?
OUTPUT: y

INPUT: Is IC50 of CCCCN1CCN(C(=O)c2ccc(NC(=O)Nc3ccc(-c4nc(N5CCOC[C@@H]5C)nc(N5CCOC[C@@H]5C)n4)cc3)cc2)CC1 strictly below 10 nM?
OUTPUT: n

INPUT: Is IC50 of CCOC(=O)N1CCC(Oc2nc(-c3ccc(NC(=O)Nc4ccncc4)cc3)nc(N3CCOCC3)n2)CC1 strictly below 10 nM?
OUTPUT: n

INPUT: Is IC50 of COCCNC(=O)c1ccc(NC(=O)Nc2ccc(-c3nc(N4CCCOCC4)nc(N4CCOCC4)n3)cc2)cc1 strictly below 10 nM?
OUTPUT: y

INPUT: Is IC50 of CCCCc1nc(-c2ccc(NC(=O)Nc3ccc(C(=O)N4CCN(C)CC4)cc3)cc2)nc(N2CCOCC2)n1 strictly below 10 nM?
OUTPUT: y

INPUT: Is IC50 of O=C(Nc1ccc(-c2nc(NC3CNC3)nc(N3CCOCC3)n2)cc1)Nc1cccnc1 strictly below 10 nM?
OUTPUT: y

INPUT: Is IC50 of O=C(Nc1ccc(C(=O)N2CCCC2)cc1)Nc1ccc(-c2nc(N3CCCC3)nc(N3CCOCC3)n2)cc1 strictly below 10 nM?
OUTPUT: y

INPUT: Is IC50 of O=C(Nc1ccc(C(=O)N2CCNCC2)cc1)Nc1ccc(-c2nc(N3CCOCC3)nc(N3CCOCC3)n2)cc1 strictly below 10 nM?
OUTPUT: y

INPUT: Is IC50 of CN1CCN(c2ccc(NC(=O)Nc3ccc(-c4nc(N5C[C@@H]6C[C@H]5CO6)nc(N5C[C@@H]6C[C@H]5CO6)n4)cc3)cc2)CC1 strictly below 10 nM?
OUTPUT: n

INPUT: Is IC50 of O=C(Nc1ccc(C(=O)N2CCC(N3CCCC3)CC2)cc1)Nc1ccc(-c2nc(N3CCOCC3)nc(N3C4COCC3COC4)n2)cc1 strictly below 10 nM?
OUTPUT: y

INPUT: Is IC50 of CN(C)C1CCN(c2ccc(NC(=O)Nc3ccc(-c4nc(-c5ccccc5)nc(N5CCOCC5)n4)cc3)cc2)CC1 strictly below 10 nM?
OUTPUT: n

INPUT: Is IC50 of O=C(Nc1ccc(C(=O)NCCN2CCCC2)cc1)Nc1ccc(-c2nc(-c3ccccc3)nc(N3CCOCC3)n2)cc1 strictly below 10 nM?
OUTPUT: n
